# study.system: Human Cav3.1 calcium channel (Homo sapiens, UniProt O43497)
# Construct: expressed in transfected cells; host or cells: HEK-293 natClytin/TASK1+Cav3.1 cell line
# Sequence (O43497 whole entry): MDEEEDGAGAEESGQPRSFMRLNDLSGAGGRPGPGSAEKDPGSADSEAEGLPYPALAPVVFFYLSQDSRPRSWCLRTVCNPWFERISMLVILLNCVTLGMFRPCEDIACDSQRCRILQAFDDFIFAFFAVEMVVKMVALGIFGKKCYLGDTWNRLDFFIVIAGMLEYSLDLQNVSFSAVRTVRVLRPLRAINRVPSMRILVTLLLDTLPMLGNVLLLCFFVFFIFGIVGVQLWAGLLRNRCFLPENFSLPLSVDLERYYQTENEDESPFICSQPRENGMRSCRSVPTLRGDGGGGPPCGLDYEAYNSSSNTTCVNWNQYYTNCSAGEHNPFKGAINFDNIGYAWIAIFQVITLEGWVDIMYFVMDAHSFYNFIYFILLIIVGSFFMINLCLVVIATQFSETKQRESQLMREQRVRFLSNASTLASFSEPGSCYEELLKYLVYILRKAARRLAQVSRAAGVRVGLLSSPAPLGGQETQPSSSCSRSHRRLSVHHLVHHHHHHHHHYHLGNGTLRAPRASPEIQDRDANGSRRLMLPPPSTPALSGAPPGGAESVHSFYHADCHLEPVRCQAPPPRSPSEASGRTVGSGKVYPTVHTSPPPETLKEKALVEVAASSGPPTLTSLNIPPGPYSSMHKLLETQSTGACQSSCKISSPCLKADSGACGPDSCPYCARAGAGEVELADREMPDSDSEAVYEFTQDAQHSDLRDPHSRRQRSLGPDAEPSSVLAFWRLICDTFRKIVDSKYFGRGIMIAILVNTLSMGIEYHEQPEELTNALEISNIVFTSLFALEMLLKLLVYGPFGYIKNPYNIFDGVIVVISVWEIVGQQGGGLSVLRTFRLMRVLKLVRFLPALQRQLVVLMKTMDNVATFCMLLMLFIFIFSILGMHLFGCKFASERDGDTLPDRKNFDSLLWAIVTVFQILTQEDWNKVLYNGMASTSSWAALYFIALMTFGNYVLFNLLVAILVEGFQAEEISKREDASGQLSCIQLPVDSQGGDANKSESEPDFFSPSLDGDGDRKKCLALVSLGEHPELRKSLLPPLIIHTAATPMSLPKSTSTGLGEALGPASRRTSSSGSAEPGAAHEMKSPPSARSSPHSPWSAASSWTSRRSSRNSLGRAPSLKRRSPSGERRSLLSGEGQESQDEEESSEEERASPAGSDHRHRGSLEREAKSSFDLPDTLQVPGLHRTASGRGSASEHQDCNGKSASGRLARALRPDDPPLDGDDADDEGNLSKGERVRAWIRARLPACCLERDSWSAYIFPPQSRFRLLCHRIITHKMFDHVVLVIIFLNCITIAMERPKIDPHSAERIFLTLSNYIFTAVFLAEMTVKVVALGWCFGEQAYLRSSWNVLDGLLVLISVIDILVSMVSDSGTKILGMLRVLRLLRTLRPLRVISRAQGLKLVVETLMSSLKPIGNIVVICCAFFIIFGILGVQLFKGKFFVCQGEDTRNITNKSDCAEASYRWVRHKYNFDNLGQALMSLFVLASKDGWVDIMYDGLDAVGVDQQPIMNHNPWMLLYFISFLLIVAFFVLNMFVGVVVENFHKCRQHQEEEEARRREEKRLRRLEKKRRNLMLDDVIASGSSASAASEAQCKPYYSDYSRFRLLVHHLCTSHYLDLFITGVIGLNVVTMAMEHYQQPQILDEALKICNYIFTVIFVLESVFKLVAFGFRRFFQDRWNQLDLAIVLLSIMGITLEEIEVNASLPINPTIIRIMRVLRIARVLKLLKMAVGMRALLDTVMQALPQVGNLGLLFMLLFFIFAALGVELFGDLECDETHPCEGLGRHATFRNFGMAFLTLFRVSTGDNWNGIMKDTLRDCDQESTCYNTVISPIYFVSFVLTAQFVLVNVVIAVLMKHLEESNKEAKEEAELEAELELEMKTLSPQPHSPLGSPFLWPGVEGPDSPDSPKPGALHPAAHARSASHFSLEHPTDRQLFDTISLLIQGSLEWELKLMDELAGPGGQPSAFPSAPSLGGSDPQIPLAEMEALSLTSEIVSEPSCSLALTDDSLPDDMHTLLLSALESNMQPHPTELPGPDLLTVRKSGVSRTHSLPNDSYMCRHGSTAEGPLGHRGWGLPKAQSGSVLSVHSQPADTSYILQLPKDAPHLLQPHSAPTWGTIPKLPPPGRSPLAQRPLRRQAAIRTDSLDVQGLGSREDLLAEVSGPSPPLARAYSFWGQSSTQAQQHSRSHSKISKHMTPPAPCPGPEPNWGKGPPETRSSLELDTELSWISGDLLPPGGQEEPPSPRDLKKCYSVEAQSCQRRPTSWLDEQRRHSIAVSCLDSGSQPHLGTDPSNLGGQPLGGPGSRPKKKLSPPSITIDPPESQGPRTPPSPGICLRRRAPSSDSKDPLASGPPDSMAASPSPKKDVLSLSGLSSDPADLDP
# assay.details: Human Cav3.1 calcium channel patch clamp assay (SyncroPatch 384PE; single point and IC50, voltage dependent block)
# Assay type: cell-based
# conditions: voltage dependent block (VDB); HEK-293 natClytin/TASK1+Cav3.1 cell line; read-out: Cav3.1 IC50
The threshold is 600 nM. Values of IC50 beneath it are tagged 1; values meeting or exceeding it are tagged -1.

stdin: Hello, is IC50 of the following compound strictly smaller than 600 nM? CC(C)(C)NC(=O)CN1C2CCC1CN(CC(=O)Nc1cc(F)cc(Cl)c1)C2
stdout: 1

stdin: Hello, is IC50 of the following compound strictly smaller than 600 nM? O=C1CCCCN1CCN1C2CCC1CN(Cc1nc3c(Cl)cc(F)cc3[nH]1)C2
stdout: 1

stdin: Hello, is IC50 of the following compound strictly smaller than 600 nM? Cc1ccnc2[nH]c(CN3CC4CCC(C3)N4CC(=O)NC(C)(C)C)nc12
stdout: -1

stdin: Hello, is IC50 of the following compound strictly smaller than 600 nM? Cc1cccc2[nH]c(C(C)N3CC4CC(C3)N4CC(=O)NC(C)(C)C)nc12 (centres unmarked)
stdout: -1

stdin: Hello, is IC50 of the following compound strictly smaller than 600 nM? COc1ccc(F)cc1NC(=O)CN1CC2CC(C1)N2CC(=O)NC(C)(C)C
stdout: -1

stdin: Hello, is IC50 of the following compound strictly smaller than 600 nM? O=C(CN1C2CCC1CN(Cc1nc3c(Cl)cc(F)cc3[nH]1)C2)N1CCOCC1
stdout: 1

stdin: Hello, is IC50 of the following compound strictly smaller than 600 nM? CC(C)(C)NC(=O)CN1C2CC1CN(CC(=O)Nc1cc(Cl)ccc1F)C2
stdout: -1

stdin: Hello, is IC50 of the following compound strictly smaller than 600 nM? COc1ccc(F)c2[nH]c(CN3CC4CC(C3)N4CC(=O)NC(C)(C)C)nc12
stdout: 1

stdin: Hello, is IC50 of the following compound strictly smaller than 600 nM? CC(C)(C)NC(=O)CN1CCC(CNc2nccc3c(Cl)cc(F)cc23)CC1
stdout: -1

stdin: Hello, is IC50 of the following compound strictly smaller than 600 nM? O=C(CN1C[C@@H]2C[C@H]1CN2CC(=O)NC1(C(F)(F)F)CC1)Nc1cc(F)c(F)c(OC(F)F)c1
stdout: 1

stdin: Hello, is IC50 of the following compound strictly smaller than 600 nM? CC(C)(C)C(O)CN1C2CC1CN(CC(=O)NC13CC4CC(CC(C4)C1)C3)C2 (centres unmarked)
stdout: -1

stdin: Hello, is IC50 of the following compound strictly smaller than 600 nM? COc1cc(F)cc2[nH]c(CN3CC4CC(C3)N4CCC3CCC(F)(F)CC3)nc12
stdout: 1

stdin: Hello, is IC50 of the following compound strictly smaller than 600 nM? CC(C)(C)NC(=O)CN1C2CCC1CN(CC(=O)NC13CC4CC(CC(C4)C1)C3)C2
stdout: -1

stdin: Hello, is IC50 of the following compound strictly smaller than 600 nM? O=C(CN1C[C@@H]2C[C@H]1CN2CC(=O)NC1(C(F)(F)F)CC1)Nc1cc(F)c(F)c(Cl)c1
stdout: 1

stdin: Hello, is IC50 of the following compound strictly smaller than 600 nM? CC(C)(C)NC(=O)CN1C[C@H]2COC[C@@H](C1)[C@@H]2CC(=O)Nc1cc(F)cc(Cl)c1
stdout: 1

stdin: Hello, is IC50 of the following compound strictly smaller than 600 nM? CC(C)(C)NC(=O)CN1C[C@@H]2CC[C@H]1CN2CC(=O)Nc1ccc(F)c(Cl)c1
stdout: 1

stdin: Hello, is IC50 of the following compound strictly smaller than 600 nM? CC(C)(C)NC(=O)CN1C[C@H]2C[C@@H]1CN2CC(=O)Nc1ccc(F)c(Cl)c1
stdout: -1

stdin: Hello, is IC50 of the following compound strictly smaller than 600 nM? CC(C)(NC(=O)CN1CCN(CC(=O)Nc2cc(F)cc(OC(F)F)c2)CC1)C(F)(F)F
stdout: -1

stdin: Hello, is IC50 of the following compound strictly smaller than 600 nM? CC(C)(C)NC(=O)CN1C[C@H]2C[C@@H]1CN2CC(=O)Nc1cc(F)cc(Cl)c1
stdout: -1

stdin: Hello, is IC50 of the following compound strictly smaller than 600 nM? N#CC1(CN2C3CC2CN(CC(=O)Nc2cc(F)cc(Cl)c2)C3)CCC(F)(F)CC1
stdout: -1

stdin: Hello, is IC50 of the following compound strictly smaller than 600 nM? CC(C)(NC(=O)CN1CC2CC(C1)N2Cc1nc2c(Cl)ccc(F)c2[nH]1)C(F)(F)F
stdout: -1

stdin: Hello, is IC50 of the following compound strictly smaller than 600 nM? COc1cc(F)cc(NC(=O)CN2CC3CC(C2)N3CC(=O)NC(C)(C)C)c1
stdout: 1

stdin: Hello, is IC50 of the following compound strictly smaller than 600 nM? CC(C)(C)NC(=O)CN1CC2CC1CN2CC(=O)Nc1cc(F)cc(OC(F)F)c1 (centres unmarked)
stdout: 1

stdin: Hello, is IC50 of the following compound strictly smaller than 600 nM? CC(C)(C)NC(=O)CN1CC2CCC1CN2Cc1nc2c(Cl)cc(F)cc2[nH]1 (centres unmarked)
stdout: 1

stdin: Hello, is IC50 of the following compound strictly smaller than 600 nM? CC(C)(C)NC(=O)CN1C2CC1CN(CC(=O)Nc1cc(Cl)cc(Cl)c1)C2
stdout: 1

stdin: Hello, is IC50 of the following compound strictly smaller than 600 nM? CC1(NC(=O)CN2CC3CC2CN3CC(=O)Nc2ccc(F)c(Cl)c2)CC1 (centres unmarked)
stdout: -1

stdin: Hello, is IC50 of the following compound strictly smaller than 600 nM? O=C(CN1CC2CC(C1)N2CC(=O)NC1(C(F)(F)F)CC1)Nc1ccc(F)c(Cl)c1
stdout: 1

stdin: Hello, is IC50 of the following compound strictly smaller than 600 nM? O=C(CN1CCN(CC(=O)NC2(C(F)(F)F)CC2)CC1)Nc1cc(F)cc(OC(F)F)c1
stdout: -1

stdin: Hello, is IC50 of the following compound strictly smaller than 600 nM? CC(C)(C)NC(=O)CN1C2CC1CN(Cc1nc3c(C(F)(F)F)cccc3[nH]1)C2
stdout: 1

stdin: Hello, is IC50 of the following compound strictly smaller than 600 nM? CC(C)(C)NC(=O)CN1C2CC1CN(CC(=O)NCC13CC4CC(CC(C4)C1)C3)C2
stdout: -1
